- target.or.test.system: T1, RSV postfusion F, subtype A (postF, F ΔFP trimer) (Respiratory syncytial virus subtype A, UniProt P03420 26-513)
- T1 construct: also called Postfusion subtype A
- experimental.protocol: BLI, IgG apparent affinity
pKd: −log10 of the molar value.
I would appreciate it if you labelled entries satisfied when pKd is 8 or higher, otherwise not satisfied.

ADI-21073 (antibody, V domains shown) VH: EVQLVESGGGLVRPGRSLRLSCAASGFTFSMFSMNWVRQAPGKGLEWLAYIGGSGSTIDYANSVSGRFTISRDNAKNSLYLQMNSLRDEDTAVYYCARIGLQTYNSHSSSSSPARAFDVWGQGTTVTVSS VL: DIVLTQSPSSLSASVGDRVTITCRASQSIGRFLNWYQQKPGKAPKLLIYAASSLESGVPSRFSGSGSGTQFSLTISSLQPEDFTTYYCQQSYSTPTTFGGGTKVDIK = satisfied
ADI-21071 (antibody, V domains shown) VH: EVQLVESGGGVVQPGKSLRLSCAVSGFTFSDHDMHWVRQAPGKGLEWVAAIWSDRTTKYYGDFVKGRFTISRDNSKNTLYLQMNSLRAEDTAVYYCARGQIYKSGGYYLVHLDHWGQGTLVTVSS VL: DIQVTQSPSSLSASVGDRVTITCRASQSIASYLNWYQQKPGKAPNLLIYAASNLQSEVPSRFSGSGSGTDFTLTISGLQPEDFATYYCQQSYNIRLLTFGGGTKVEIK = satisfied
ADI-21084 (antibody, V domains shown) VH: EVQLVESGAEVKKPGASVTVSCKASGYTFTSNTISWLRQAPGQGLEWLGWVSASNGNTKYAQKFQGRVTMTTDTSATTAYMEVRTLRHDDTAIYYCARDILDMGGFHFDNWGQGTLVTVSS VL: SYVLTQPPSVSVAPGQTARITCGGNNIGNKHVHWYKQKPGQAPVLVVYDDSDRPSGIPERFSGSNSGNTATLTVSRVEAGDEADFYCQVWDNTNDHPVFGGGTKVTVL = not satisfied

Now look at this entry.
INPUT: Item ADI-21090 (antibody, V domains shown) VH: EVQLLESGGGLVKPGGSLRLSCAASGFTSGFTFSDFYMSWIRLTPGKGLEWISYISTHSTSTNYADSVRGRFIISRDDARNSLFLQMNSLRAEDTAVYYCAGYYYGSGSYFFDHWGQGTLVTVSS VL: ETTLTQSPATLSVSPGERATLSCRASQSVSSNVAWYQQKPGQAPRLLIYSASSRDTGIPVRFSGSGSGTEFTLSISSLQSEDFAVYYCQQYSDWPTFGQGTKVEIK with pKd of 8 or above?
OUTPUT: satisfied
